- assayOverview: qHTS Primary assay for Inhibitors of Plasmodium falciparum Dd2 growth in vitro; note: nearly all actives have a fitted effect of over 65% in size
- testParameters: P. falciparum Dd2 growth, SYBR Green, 72 h; series mostly up to 28.9 µM
Among all 120,000 compounds or so, about 5,300 (4.4%) were called active. Roughly 22% stayed inconclusive and do not appear here. Calls come from the whole dose curve; as a rule, active = well fitted inhibition curve with a large enough effect; inconclusive = small, poorly fitted or top-dose-only effect; inactive = no such curve, though single readings can be large or run the other way. Shown is part of a subset that was picked to be rich in actives.
Choose the fitting class; nothing outside active, inactive is accepted.

Past entries and their recorded results:
molecule: O=C(NC1CCCN(c2cc(-c3ccc(Cl)cc3)[nH]n2)C1)c1ccncc1 (configuration not stated)
classAssignment: inactive

molecule: COc1ccc(CN2CCC3(COc4ccccc4C(=O)N3)C2)cc1 (configuration not stated)
classAssignment: inactive

molecule: CC(C)c1ccc(N2C(=O)N[C@@H]3CCN(C(=O)c4ccc(C(C)(C)C)cc4)[C@@H]3C2=O)cc1
classAssignment: inactive

molecule: Cc1ccc(-c2cn3c(n2)sc2cc(C(=O)NCCCc4ccccc4)ccc23)cc1
classAssignment: inactive

molecule: COc1ccc(-n2c(=O)c3ccccc3n(Cc3ccccc3Cl)c2=O)cc1
classAssignment: inactive

molecule: Cc1cccc(OCCSc2nc3ccc(NC(=O)COc4ccccc4C)cc3s2)c1
classAssignment: inactive

molecule: CC1=NOC2(CCN(Cc3c[nH]c4ccccc34)CC2)C1
classAssignment: inactive

molecule: Cc1cnc(C)c(N2CCN(C(=O)[C@H]3CC[C@@H](N)C3)CC2)n1
classAssignment: inactive

molecule: Cc1ccccc1C(=O)NCc1nnc2ccc(-c3ccccc3)nn12
classAssignment: inactive

molecule: O=C(Nc1ccc2nc(SCCOc3ccccc3)sc2c1)c1ccco1
classAssignment: active

Query :: Per the records of this test, what outcome belongs to "Cc1ccc(CN2CCCOCCNC(=O)CC2)o1" ?
Result :: inactive

Query :: Per the records of this test, what outcome belongs to Cc1noc(C)c1[S+](=O)([O-])N1CCCCC12Cc1ccccc1NC2=O (configuration not stated) ?
Result :: inactive

Query :: Per the records of this test, what outcome belongs to "CCOc1cccc2cc(-c3cn4c(n3)sc3cc(C)ccc34)c(=O)oc12" ?
Result :: inactive

Query :: Per the records of this test, what outcome belongs to "NS(=O)(=O)c1ccc(F)c(C(=O)NCc2ccc3nonc3c2)c1" ?
Result :: inactive

Query :: Per the records of this test, what outcome belongs to "O=C(O)c1ccc(CSc2nc3cccnc3n2Cc2cccc(F)c2)cc1" ?
Result :: inactive

Query :: Per the records of this test, what outcome belongs to O=C(Cc1cccs1)NC1CCCN(c2cc(-c3ccccc3)[nH]n2)C1 (configuration not stated) ?
Result :: inactive

Query :: Per the records of this test, what outcome belongs to "Cc1ccc(OCCSc2nc3ccc(NC(=O)COc4ccc(C)cc4)cc3s2)cc1" ?
Result :: inactive

Query :: Per the records of this test, what outcome belongs to CCCN1CCN(C(=O)CC2CCCN(c3cnn(CCOC)c(=O)c3)C2)CC1 (configuration not stated) ?
Result :: inactive

Query :: Per the records of this test, what outcome belongs to "O=C(Nc1cccc(Cl)c1)[C@@H]1C[C@@H](c2ccc(F)cc2)N([S+](=O)([O-])c2cccnc2)C1" ?
Result :: inactive

Query :: Per the records of this test, what outcome belongs to "C=CCNC(=O)CCc1c(CC)nn(-c2ccccc2)c1Oc1ccccc1OC" ?
Result :: inactive

Query :: Per the records of this test, what outcome belongs to "c1ccc2c(c1)CNC1(CCN(Cc3cccc4ccccc34)CC1)CO2" ?
Result :: active

Query :: Per the records of this test, what outcome belongs to "Cc1ccc2c(C)c(C(=O)N3CCCn4cncc4C3)oc2c1" ?
Result :: inactive

----------
- assayOverview: qHTS Primary assay for Inhibitors of Plasmodium falciparum Dd2 growth in vitro; note: nearly all actives have a fitted effect of over 65% in size
- testParameters: P. falciparum Dd2 growth, SYBR Green, 72 h; series mostly up to 28.9 µM
Screen size: about 120,000 compounds; about 5,300 (4.4%) were called active. About 22% were inconclusive and are not listed. The call rests on the fitted dose curve; in most records, active means well fitted inhibition curve with a large enough effect; inconclusive means small, poorly fitted or top-dose-only effect; inactive means no such curve, though single readings can be large or run the other way. The entries come from a sample that favours actives as a whole.
Choose the fitting class; nothing outside 1.0 (active), 0.0 (inactive) is accepted.

compound: CN(C)C[C@@H]1CN(C)C[C@H]1NC(=O)c1cc2ccccc2[nH]1
classAssignment: 0.0
//
compound: O=C(c1cnccn1)N1CC2CC(C1)[C@H]1CCCC(=O)N1C2 (stereo not given in full)
classAssignment: 0.0
//
compound: NC(=O)[C@H](CCC(=O)O)NC(=O)[C@@]1(O)C[C@@H](O)[C@H](O)[C@@H](NS(=O)(=O)c2cccc(C(F)(F)F)c2)C1
classAssignment: 0.0

Query :: Per the records of this test, what outcome belongs to "CN(CCc1cn[nH]c1)c1ccc(-c2nc(-c3ccccc3F)no2)cn1" ?
Result :: 0.0

Query :: Per the records of this test, what outcome belongs to COCCNC(=O)C1c2ccccc2C(=O)N(C2CCCC2)C12CCCCC2 (stereo not given) ?
Result :: 0.0

Query :: Per the records of this test, what outcome belongs to "CCc1nc2c(c(-c3ccc(Cl)cc3)n1)CCN([S+](=O)([O-])c1cccs1)CC2" ?
Result :: 1.0

Query :: Per the records of this test, what outcome belongs to CN(Cc1nc2ccsc2c(=O)[nH]1)C(=O)C1NCCc2[nH]cnc21 (stereo not given) ?
Result :: 0.0

Query :: Per the records of this test, what outcome belongs to "CCc1nc2c(c(-c3ccc(OC)cc3)n1)CCN(CC1CCCCC1)CC2" ?
Result :: 0.0

Query :: Per the records of this test, what outcome belongs to "CCc1nc2c(c(-c3ccc(Cl)cc3)n1)CN(CCC(C)C)CC2" ?
Result :: 1.0

Query :: Per the records of this test, what outcome belongs to "Cc1cc(OC2CN([S+](=O)([O-])c3cccs3)C2)ccc1F" ?
Result :: 0.0

----------
- assayOverview: qHTS Primary assay for Inhibitors of Plasmodium falciparum Dd2 growth in vitro; note: nearly all actives have a fitted effect of over 65% in size
- testParameters: P. falciparum Dd2 growth, SYBR Green, 72 h; series mostly up to 28.9 µM
About 5,300 (4.4%) of roughly 120,000 compounds were called active. Roughly 22% stayed inconclusive and do not appear here. Calls follow the shape of the dose curve; as a rule, active = well fitted inhibition curve with a large enough effect; inconclusive = small, poorly fitted or top-dose-only effect; inactive = no such curve, though single readings can be large or run the other way. The sample as a whole holds a higher share of actives than the screen did.
Choose the fitting class; nothing outside yes (1) (active), no (0) (inactive) is accepted.

Past entries and their recorded results:
compound: CCCCN1C(=O)c2[nH]nc(-c3ccccc3O)c2C1c1cccc(OCc2ccccc2)c1 (configuration not stated)
classAssignment: yes (1)
//
compound: COc1ccc(OCC2CCN(CC3(O)CCCNC3)CC2)cc1 (configuration not stated)
classAssignment: yes (1)
//
compound: COc1ccc(N2CC(C(=O)N3CCSCC3)CC2=O)cc1Cl (configuration not stated)
classAssignment: no (0)
//
compound: OC1(CN2CCC(CCn3cccn3)CC2)CNCCOC1 (configuration not stated)
classAssignment: no (0)
//
compound: Cc1noc(-c2ccco2)c1C(=O)NC(C)c1ccccc1 (configuration not stated)
classAssignment: no (0)
//
compound: COc1ccc(NC(=O)O[C@@H]2CO[C@H]3[C@@H]2OC[C@@H]3NC(=O)C2CCCCC2)cc1
classAssignment: no (0)
//
compound: COc1cccc(SCC(=O)NCc2cc3n(n2)CCNC3)c1
classAssignment: no (0)
//
compound: C[C@@H]1CN(C(=O)c2ccsc2)C[C@H]1c1nc(-c2ccncc2)no1
classAssignment: no (0)

Query :: Per the records of this test, what outcome belongs to CN1CCC2(C1)CN(CC1CC1)c1ccc(C(=O)NC3CC3)cc12 (configuration not stated) ?
Result :: no (0)

Query :: Per the records of this test, what outcome belongs to "Cc1cc(Cn2cc3c4c(cccc42)[C@H](CC(C)C)N[C@H](C(=O)N2CCCCCC2)C3)no1" ?
Result :: no (0)

Query :: Per the records of this test, what outcome belongs to CC(C)c1noc(-c2cn(C3CCN(C(=O)COc4ccccc4)C3)nn2)n1 (configuration not stated) ?
Result :: no (0)

Query :: Per the records of this test, what outcome belongs to "CCc1nc2ccc(C(=O)N3CCN(c4cc(Cl)ccc4C)CC3)cc2nc1CC" ?
Result :: yes (1)

Query :: Per the records of this test, what outcome belongs to "CCc1nc2ccc(C(=O)N3CCN(c4cccc(Cl)c4)CC3)cc2nc1CC" ?
Result :: no (0)

Query :: Per the records of this test, what outcome belongs to "COCc1cc(CC2(NCC(C)(C)C)COC2)no1" ?
Result :: no (0)

----------
- assayOverview: qHTS Primary assay for Inhibitors of Plasmodium falciparum Dd2 growth in vitro; note: nearly all actives have a fitted effect of over 65% in size
- testParameters: P. falciparum Dd2 growth, SYBR Green, 72 h; series mostly up to 28.9 µM
About 5,300 (4.4%) of roughly 120,000 compounds were called active. Inconclusive results (about 22%) are left out. The call rests on the fitted dose curve; in most records, active means well fitted inhibition curve with a large enough effect; inconclusive means small, poorly fitted or top-dose-only effect; inactive means no such curve, though single readings can be large or run the other way. The sample holds actives, similar compounds and a random draw of the others, so the mix is not that of the screen.
Choose the fitting class; nothing outside T = active, F = inactive is accepted.

Past entries and their recorded results:
compound: COc1cccc([S+](=O)([O-])N2CCCC3(CC(c4cccc(C(F)(F)F)c4)=NO3)C2)c1 (stereo not given)
classAssignment: F
--
compound: COc1ccc(-c2nc(C)nc3c2CN([S+](=O)([O-])c2onc(C)c2C)CC3)cc1
classAssignment: F
--
compound: COc1ccc(-c2nc(C3CC3)nc3c2CCN([S+](=O)([O-])c2ccccc2)CC3)cc1
classAssignment: T
--
compound: COC[C@@H]1CN(Cc2cnn(C)c2C)C[C@H]1c1nc(C2CC2)no1
classAssignment: F

API: the following record is the query input.
Query :: Per the records of this test, what outcome belongs to "COc1ccc(-c2nc(C(C)C)nc3c2CCN(C(=O)Cc2ccccn2)CC3)cc1" ?
Result :: F
